# System: K4 kissing-loop RNA reporter;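 further: bound reporter read as fluorescence of individual clusters on recovered sequencing chips by microscopy, with normalized cluster intensities fitted with a binding model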
# METHOD_SUMMARY: apparent KD of K4 kissing-loop reporter; higher = weaker reporter binding
# CONDITION_INFO: Eterna round: R107; input ligand: none
Assign apparent KD of K4 kissing-loop reporter to each entry below.
I only need the number, in nM, no unit after it.

Lab book: apparent KD of K4 kissing-loop reporter of GAGGGCUCGGGAGGAUAUGAGUCUAGUGAUGUUAGGCGGUCCAUGCGCGUGGCGCGUUAUGCCCUUUUAGAAGGCCCGAGCCCGC [#2 Exclusion - FMN B Attempt #23 (HarryS)] noted as 90.5

So for UCCUGCAAUCUGCCACGAAAGUGGGUUGAUACCAGAGUCGAAAGACUCCCUUGGCAGCGAGUGAUGUUCGUUGCAGGUGUAUAAA [MatMod 10 - Jieux - Exclusion - Theophylline A] , the logged apparent KD of K4 kissing-loop reporter turned out to be 194

// recorded apparent KD of K4 kissing-loop reporter for GCUAAGGAGUGAUGUUCCAAGUGAUGUUAACGAGGACCGGUACGGCCGCCACUCGAUACGGCCGGACCGUAAGAUAAACUACAGC [Same State - Tryptophan A (Freestyle 6)] : 213

# sequence UUUCGGUUCUGAGGAUAUUCGGACAAAUAUAGUGAUGUUGUAUAAGGAGGAGGGUGUUGGCAGUGCGGAGAAGGCAGAAGAGGAU [ExFMNB.U] ; its apparent KD of K4 kissing-loop reporter = 992

sequence AUUUUUUUAUCAGGAUAUUAGUGAUGGUUUGUUUUGUUAGUGAUGUUGAUAUUUGUUUUAUGUAUUUAAGAAGGGAUUGAGAUGU [seesullin] , apparent KD of K4 kissing-loop reporter observed: 44.1

The sequence listed as GACUCAUGUAGAAGGAGCGUCAGAAGCUACAGACAUGAGUGAUGUUCAUGUUAGUUGAUCUGACAGGUAGGUCGCUACAGCAGGA [KL-SSArg B14 #analogue] shows apparent KD of K4 kissing-loop reporter equal to 149

get_value(item= ACACUUUACGUAGGAUAUGCGACGAGUGAUGUUCGUCAGGCGGCUCUAGAUUAAACAAGCCGCCUAGCAGAAGGACGGGCAGUGU [Teaanso] , readout=apparent KD of K4 kissing-loop reporter) returns 164

Lab note: AUACGUUUAAGUGAUACCAGACUGGUGAGUGAUGUUUACCAAUAAAUUAAAUUAUUAGCUGUCCCUUGGCAGCACAGUUUAUUUA [JR_ExcTheophyB_Sub005] gave apparent KD of K4 kissing-loop reporter of 317

Form field apparent KD of K4 kissing-loop reporter, entry GGUUCGAGUGAUGUUCGGGUCGAUUGGGAAGGAGCGCCCGGAAGGGCAGGUAGGUCGCCCGGGCCGCGCGGGAAACCGCGCGUCC [#2 Same State - Arginine A Attempt #7 (HarryS)] : 175

The reported value for GUGCGCGCGGCGGCCGCCACUCGCAUGAGAGUGAUGUUCUUGCCCGGGCCGCAAGGCCCGGGUGUGAGGACCGGGCCGGGCUGCG [#2 Same State - Tryptophan B Attempt #26 (HarryS)] in terms of apparent KD of K4 kissing-loop reporter is 180

Sample AUUGAUAUAUAUAUUUGAUUUUUAUGUGAUACCAGACAAGGCAUAGUCCCUUGGCAGCACUUUAUAUUUACGAGUGAUGUUCGUA [JR_SSTheophyA_Sub025] ; apparent KD of K4 kissing-loop reporter observed: 180

Notebook: AAGAGGUAGGCGGCCGCCACUAGUUGUGAACACAUACGAGCCAGUGAUGUUGGUAUGGUGGGCGGUAGGACCGGGCCUACCUGAA [Exclusion - Tryptophan B (Freestyle 18)] , apparent KD of K4 kissing-loop reporter read as 496

For record CAGGCCGAGUGAUGUUCGGUCUGAGUGAUAAAGGAUAUAAGGGAUUUUAGAAGGUUAUCUAAACAGACCAAACAUCUAUCCACUC [theeternabot_exclusion_KL_FMN_A_16] the listed apparent KD of K4 kissing-loop reporter is 138

Query GCCGUACGCAUGGAUACCAGCGUACGUCACCUAGCAGUGAUGUUGCUAUUGCCACGUAAACGCCCUUGGCAGCCAUGCGUACGGC yields apparent KD of K4 kissing-loop reporter of 478

Entry CCGAAGAACCAGUGAUGUUGGUUGACUAGACAGGAUAUGAGCAACAUCAGAAGGGUCUGGCUUCGGGAGAGAGUCGCGCUGACCU [Anditebier] — recorded apparent KD of K4 kissing-loop reporter = 388

apparent KD of K4 kissing-loop reporter reading for ACAUCGGUUGAGAGUGAUGUUCCUUGUGUUCGAGGACCGGUACGGCCGCCACUCGGGUAGAAAAUAAAAGAUGUGUUUGAUUUUU [BDazzled - #15 SS Tryptophan A] : 143

Summary for this sequence, GCUCGUCAUGUCAGCGGUGGUACUGUCGAUACCAGUGCCGUAAGGCGCCCUUGGCAGCGAUGCGCUGGAGUGAUGUUCCAGCGUU [#2 Exclusion - Theophylline A Attempt #32 (HarryS)] : apparent KD of K4 kissing-loop reporter is 116

apparent KD of K4 kissing-loop reporter recorded for this sequence, UGACUGGACUGAAGGAGCGCGAAACUCCUAGUGAUGUUAGGACAACGAGACAAAGUCUCGACGCAGGUAGGUCGCAGUCUAGUCU , is 131

Noted for UAAUAUAAUCUGUCGUAAACAAUAAUUAGUCAGGAUAUCGUAUAUUCGAGAAGGGACACUAUCUAGUGAUGUUAGAUAUUUCGUU [JR_SSFMNA_Sub026] : its apparent KD of K4 kissing-loop reporter reads 53.4

Per the record, GGGAGAGCGCGAAGGAGCGCCCUGACAGGUUGCUGCCGUGGGCAGUGAUGUUGCUCAGUCCGGCAGGUAGGUCGCGUGCUCUCCC has apparent KD of K4 kissing-loop reporter of 192

Quick note, apparent KD of K4 kissing-loop reporter for GCGAGUUUGCAAGGAUAUCGACCGUCGUACGACCAGUGAUGUUGGGAGUACUUUCAAAAUCGAUUUCGAGAAGGUGCUGGCAUCA [theeternabot_sameState_KL_FMN_B_12] landed at 250

Item: UUUUUGGAGAAUUAUAGUGAUGUUAUGAAGGAGGAUAUCUGGAGAUGGAGAAGGCCUAGUGGCUCAGCCAUGGAGGGUGGGUGGG [ExFMNA.aA] | apparent KD of K4 kissing-loop reporter: 894

====

# Tested on: MS2 coat protein
# METHOD_SUMMARY: apparent KD of MS2 coat protein; designed switch direction (-1 OFF switch, 1 ON switch): -1; higher = weaker reporter binding
# CONDITION_INFO: input ligand: none
Would you mind labelling by apparent KD of MS2 coat protein? At or over 70 nM is Criterion met, under is Criterion not met.

Exercise: Decide: is the reported value of apparent KD of MS2 coat protein for UACAUGAGGAUCACCCAUGUUUUGUCGUGUAUGGUAUUUAUCUAGGAUAUCAAUCUAUUUAUUUAUGAGAAGGAGAAUAUUAAU [JMF's solution 13] (Eterna round: R96, puzzle: Exclusion NG 3) equal to or greater than 70 nM?
Key: Criterion not met

Exercise: API: above_or_equal(metric=apparent KD of MS2 coat protein, cutoff=70 nM) for item CAAUUCAGAGGAUAUGCGCAUAGAUAAGACUUUUUUUCUUAACAUGAGGAUCACCCAUGUAGAAGGCUGUAACC [Ex2 #63] (Eterna round: R97, puzzle: Exclusion 2)
Key: Criterion not met

Exercise: Is reported apparent KD of MS2 coat protein greater than or equal to 70 nM here: GUGGGUUACAUGAGGAUCACCCAUGUAUAGUGGGAAAAAAUAUAGGAUAUAAUAUAAAAAUUAUAUUAGAAGGAUAGAGACUAG [AK ExNG3-1] (Eterna round: R96, puzzle: Exclusion NG 3)
Key: Criterion met

Exercise: Hello, I need to know if GCUUGUGUUGAGGAUAUGCGCCGGCUCGCUGGCGCAGAAGGCGGCACAUGAGGAUCACCCAUGUCAGUUCGCGU [salish99_ex6_r004_010] (Eterna round: R97, puzzle: Exclusion 6) has measured apparent KD of MS2 coat protein not below 70 nM. Thanks!
Key: Criterion not met

Exercise: State whether the measured apparent KD of MS2 coat protein reaches 70 nM, counting equality as reaching it, for UACAAUGCUUUUGUAAGGUACAUGAGGAUCACCCAUGUCUCGCAAAGGCUUGAUUAUCACGUACGCGCUUGUCUUGU [Eternabot (L1) Solution 17] (Eterna round: R97, puzzle: Sensor, turn-off variant 1)
Key: Criterion not met

Exercise: # bool: apparent KD of MS2 coat protein of UCUCGUUGGCAAGGAUAUCCUACAUUGUUCUGGCCCGGGCAUGCUACAUGAGGAUCACCCAUGUGGGAGAAGGUGCGUCAUUGC [Design 23] (Eterna round: R96, puzzle: Exclusion NG 2) >= 70 nM
Key: Criterion met

Exercise: Identify whether the reported apparent KD of MS2 coat protein of the following sequence is 70 nM or greater: CCCAGUUAGUGAGGAUAUCUUACAUGAGGAUCACCCAUGUAAUAAAUGAGGAUUUCGGGUGUCUAAGAGAAGGCACGGAUAGGC [Ostracism 25 - Jieux - Exclusion NG 2] (Eterna round: R96, puzzle: Exclusion NG 2)
Key: Criterion not met

Exercise: Has GAUCAGUAAGGAUAUACAUGAGGAUCACCCAUGUGGAUGGCCGCGCAUUUCCAUUCAGGUAGAAGGUACUGAGU [Eternabot (L1) Solution 94] (Eterna round: R97, puzzle: Exclusion 3) a recorded apparent KD of MS2 coat protein greater than or equal to 70 nM?
Key: Criterion not met

Exercise: I'd appreciate it if you could say whether AUUUAAUUUAGCGAGAUCACAUGAGGAUCACCCAUGUAUAUAUAGGAUAUCAGCUCGAUUAGAGCUGAGAAGGAUAUAUACCGC [ExNG3/7-A1] (Eterna round: R96, puzzle: Exclusion NG 3) has apparent KD of MS2 coat protein at least equal to 70 nM.
Key: Criterion met

Exercise: Assess whether reported apparent KD of MS2 coat protein for GAAUGAGAGCAGGAUAUCUUAUCAAUGUACGAAAGAGAAGGGCUCACAUGAGGAUCACCCAUGUGGUCCUAGAU [jl-ex6-4.66 jandersonlee mod] (Eterna round: R97, puzzle: Exclusion 6) sits at 70 nM or higher.
Key: Criterion met

Exercise: Threshold query (apparent KD of MS2 coat protein >= 70 nM) on GAGACGAAAGGAUAUACAUGAGGAUCACCCAUGUAUGAAACAUGAGAAGACACCGCUGGUAGAAGGUUUGGAAA [Eternabot (Original) Solution 46] (Eterna round: R97, puzzle: Exclusion 3)
Key: Criterion not met

Exercise: Reported apparent KD of MS2 coat protein reaches at least 70 nM for CGAUGCUCGAAUCCACAUGAGGAUCACCCAUGUCGAGUUAGCGAGGAUAUCGGUGACACAUAGUAUGAGAAGGCGCGAACCUGA [Ex NG3 #24] (Eterna round: R96, puzzle: Exclusion NG 3) ?
Key: Criterion not met

Exercise: In plain terms: is recorded apparent KD of MS2 coat protein at least 70 nM for CCUUGACAUGAGGAUCACCCAUGUUAGGAUAUAACAUUUGACACUACAGUAUGAAGUGUUAGAAGGGAUAUGGG [-22.5, -21 kcal, A 32%] (Eterna round: R97, puzzle: Exclusion 1) ?
Key: Criterion not met

Exercise: Does the sequence UUAGUAUAGCAAGGAUAUGUUUAUGUAUAGUUGCCUCUUACAUGAGGAUCACCCAUGUUUAACUUACAGAAGGUGCAAUGAUUU [JR_ExcNG2_Sub033] (Eterna round: R96, puzzle: Exclusion NG 2) have recorded apparent KD of MS2 coat protein that is 70 nM or more?
Key: Criterion met

Exercise: Decide: is the reported value of apparent KD of MS2 coat protein for AAUUCGAGAGGAUAUACAGGUGAUAUGUAGAAGCCUCGAGCACAUGAGGAUCACCCAUGUAGAAGGCUCAUAUA [EX2 A.11] (Eterna round: R97, puzzle: Exclusion 2) equal to or greater than 70 nM?
Key: Criterion not met

Exercise: Could you tell me if the measured apparent KD of MS2 coat protein of GGAUCGAGUGUGAGGAUAUACCUAUGGAUACAUAGGUAGAAGGCACAUGAGGAUCACCCAUGUCCUAACGGUCC [Eli bmx4 4.15] (Eterna round: R97, puzzle: Brourd's mod of Exclusion 4) reaches 70 nM or more?
Key: Criterion met

Exercise: Quick check, apparent KD of MS2 coat protein >= 70 nM? CAGCUGAAUGUCAGGAUAUCUAGAGCCUCGGCUCUAGAGAAGGGACAUGAGGAUCACCCAUGUCACUCCAGCUG [BmEx4/3-B2] (Eterna round: R97, puzzle: Brourd's mod of Exclusion 4)
Key: Criterion not met
